Biological target: UniProt Q923Y8
Assay: Radioligand binding assay on mouse TAAR1
Settings: read-out: Ki (μM) mouse
Counter-ions that a name gives are not always drawn.

>  <Compound>
O=C(Nc1ccc([C@H]2CCCNC2)cc1)c1ccc(Cl)cn1 [Example 167, hydrochloride]

>  <Ki (µM)>
0.0271

$$$$
>  <Compound>
O=C(Nc1ccc([C@@H]2CNCCO2)cc1)c1ccc(Cl)cc1F [Example 229, hydrochloride]

>  <Ki (µM)>
0.0218

$$$$
>  <Compound>
O=C(Nc1ccc([C@@H]2CCCNC2)cc1)c1ccc(Cl)c(Cl)c1 [Example 152, hydrochloride]

>  <Ki (µM)>
0.0086

$$$$
>  <Compound>
Cc1cc(C(=O)Nc2ccc([C@@H]3CCCNC3)cc2)cc(Cl)n1

>  <Ki (µM)>
0.243

$$$$
>  <Compound>
O=C(Nc1ccc([C@H]2CCCNC2)cc1)c1ccc(C(F)(F)F)nc1 [Example 265, hydrochloride]

>  <Ki (µM)>
0.0209

$$$$
>  <Compound>
C[C@@H]1CNC[C@H](c2ccc(NC(=O)c3ccc(Cl)nc3)cc2)O1 [Example 310, hydrochloride]

>  <Ki (µM)>
0.0476

$$$$

---

Molecular target: mouse TAAR1 (Mus musculus (Mouse), UniProt Q923Y8)
Sequence (Q923Y8 whole entry): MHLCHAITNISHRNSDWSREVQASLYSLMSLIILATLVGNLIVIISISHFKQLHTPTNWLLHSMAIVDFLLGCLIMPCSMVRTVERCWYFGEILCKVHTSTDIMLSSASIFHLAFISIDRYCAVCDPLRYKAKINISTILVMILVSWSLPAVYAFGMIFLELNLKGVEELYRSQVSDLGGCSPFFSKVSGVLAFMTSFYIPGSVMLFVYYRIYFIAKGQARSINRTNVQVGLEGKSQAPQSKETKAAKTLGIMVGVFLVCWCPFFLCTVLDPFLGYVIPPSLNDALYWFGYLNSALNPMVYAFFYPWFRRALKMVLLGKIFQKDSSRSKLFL
Assay: Radioligand binding assay on mouse TAAR1
Conditions: mouse TAAR1, HEK-293 membranes, first value of cell mouse/rat; read-out: Ki (μM) mouse
Counter-ions that a name gives are not always drawn.
Reported Ki is given for each of the following compounds.

>  <Compound>
O=C(Nc1ccc(CCC2CCNC2)cc1)c1ncccc1F (racemic) [Example 132, hydrochloride]

>  <Unit name>
µM

>  <Ki>
9.99

$$$$
>  <Compound>
CC(C(=O)Nc1ccc(C2CCNC2)cc1)c1cccc(C(F)(F)F)c1 (racemic) [Example 61]

>  <Unit name>
µM

>  <Ki>
0.0172

$$$$
>  <Compound>
O=C(Nc1ccc(C2CCNC2)nc1)c1ccc(Cl)cc1 (racemic) [Example 140]

>  <Unit name>
µM

>  <Ki>
0.245

$$$$
>  <Compound>
O=C(Nc1ccc(Cl)cc1)Nc1ccc(CCC2CCCNC2)cc1 (racemic) [Example 119, hydrochloride]

>  <Unit name>
µM

>  <Ki>
0.0365

$$$$
>  <Compound>
O=C(Nc1ccc(C2CNCCO2)cc1)c1ccc(Oc2ccc(Cl)cc2)cc1 (racemic) [Example 206, hydrochloride]

>  <Unit name>
µM

>  <Ki>
0.0026

$$$$
>  <Compound>
O=C(Nc1ccc(CCC2CCCCN2)cc1)c1ccc(F)cc1 (racemic) [Example 170, hydrochloride]

>  <Unit name>
µM

>  <Ki>
0.234

$$$$
>  <Compound>
O=C(Nc1ccc(OC2CCNC2)cc1)c1ccc(Cl)cc1 (racemic) [Example 39, hydrochloride]

>  <Unit name>
µM

>  <Ki>
0.0007

$$$$
>  <Compound>
O=C(Nc1ccc([C@@H]2CCCNC2)cc1)c1ccc(Cl)cc1 [Example 112]

>  <Unit name>
µM

>  <Ki>
0.211

$$$$
>  <Compound>
C#Cc1ccc(C(=O)Nc2ccc(C3CCNC3)cc2)cc1 (racemic) [Example 54, hydrochloride]

>  <Unit name>
µM

>  <Ki>
0.0021

$$$$
>  <Compound>
O=C(Nc1ccc(C2CCCCN2)cc1)c1ccc(Cl)cc1 (racemic) [Example 159, hydrochloride]

>  <Unit name>
µM

>  <Ki>
6.38

$$$$
>  <Compound>
O=C(Nc1ccc(C2CCNC2)cc1)c1nccc2ccsc12 (racemic) [Example 93, hydrochloride]

>  <Unit name>
µM

>  <Ki>
0.04

$$$$
>  <Compound>
CCOc1ccc(C(=O)Nc2ccc([C@@H]3CCCNC3)cc2)cn1 [Example 256]

>  <Unit name>
µM

>  <Ki>
1.17

$$$$
>  <Compound>
CC(C(=O)Nc1ccc(C2CCNC2)cc1)c1cccc(C#N)c1 (racemic) [Example 68]

>  <Unit name>
µM

>  <Ki>
0.147

$$$$
>  <Compound>
Cc1cc(C(=O)Nc2ccc(C3CNCCO3)cc2)cc(C)n1 (racemic) [Example 295, dihydrochloride]

>  <Unit name>
µM

>  <Ki>
0.235

$$$$
>  <Compound>
O=C(Nc1ccc(C2CCCNC2)cc1)c1ccc(Cl)nc1 (racemic) [Example 74, hydrochloride]

>  <Unit name>
µM

>  <Ki>
0.0049

$$$$
>  <Compound>
CSc1cccc(C(=O)Nc2ccc([C@@H]3CCCNC3)cc2)c1 [Example 259]

>  <Unit name>
µM

>  <Ki>
0.044

$$$$

---

Known Ki of a selection of compounds
Target: rat TAAR1 (Rattus norvegicus (Rat), UniProt Q923Y9)
Sequence (Q923Y9 whole entry): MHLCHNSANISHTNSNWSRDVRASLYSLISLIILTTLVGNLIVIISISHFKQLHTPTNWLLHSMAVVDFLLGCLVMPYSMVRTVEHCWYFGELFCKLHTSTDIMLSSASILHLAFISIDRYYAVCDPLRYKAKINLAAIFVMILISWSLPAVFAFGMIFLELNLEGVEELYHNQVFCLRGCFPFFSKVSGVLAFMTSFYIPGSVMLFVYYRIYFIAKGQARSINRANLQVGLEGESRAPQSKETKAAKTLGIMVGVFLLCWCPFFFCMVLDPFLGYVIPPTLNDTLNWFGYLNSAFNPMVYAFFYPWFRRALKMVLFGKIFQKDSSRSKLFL
Experiment: Radioligand binding assay on rat TAAR1
Conditions: rat TAAR1, HEK-293 membranes, second value of cell mouse/rat; read-out: Ki (μM) rat
Where a name gives a salt, the structure may show the parent alone.

>  <Compound>
O=C(Nc1ccc(C2CCNC2)cc1)c1ccc(C(F)(F)F)cc1 (racemic) [Example 18, hydrochloride]

>  <Unit name>
µM

>  <Ki>
0.0036

$$$$
>  <Compound>
COC(=O)c1ccc(COc2ccc(C(=O)Nc3ccc(C4CNCCO4)cc3)cc2)cc1 (racemic) [Example 211, hydrochloride]

>  <Unit name>
µM

>  <Ki>
0.0009

$$$$
>  <Compound>
O=C(Nc1ccc(C2CCNC2)cc1)OC1CCC(F)(F)CC1 (racemic) [Example 45]

>  <Unit name>
µM

>  <Ki>
0.0077

$$$$
>  <Compound>
O=C(Nc1ccc(C2CCN(c3ccccc3)C2)cc1)c1ccc(Cl)cc1 (racemic) [Example 36]

>  <Unit name>
µM

>  <Ki>
0.324

$$$$
>  <Compound>
Cc1ccc(C(=O)Nc2ccc([C@H]3CNCCO3)cc2)cc1 [Example 196, hydrochloride]

>  <Unit name>
µM

>  <Ki>
0.001

$$$$
>  <Compound>
Cc1cc(C(=O)Nc2ccc(C3CNCCO3)cc2)cc(Cl)n1 (racemic) [Example 273, hydrochloride]

>  <Unit name>
µM

>  <Ki>
0.008

$$$$
>  <Compound>
O=C(Nc1ccc(C2CCNC2)cc1)OCCc1cc(F)ccc1F (racemic) [Example 124]

>  <Unit name>
µM

>  <Ki>
0.0036

$$$$
>  <Compound>
COc1cc(C(=O)Nc2ccc([C@H]3CCCNC3)cc2)ccc1Cl [Example 200, hydrochloride]

>  <Unit name>
µM

>  <Ki>
0.0022

$$$$

---

Catalogue of compounds with associated Ki
Target: rat TAAR1 (Rattus norvegicus (Rat), UniProt Q923Y9)
Test: Radioligand binding assay on rat TAAR1
Settings: rat TAAR1, HEK-293 membranes, second value of cell mouse/rat; read-out: Ki (μM) rat
Structures can show the parent of a compound that is named as a salt.
Property measured: Ki

>  <Compound>
O=C(Nc1ccc(CCC2CCCN2)cc1)c1cnc(Cl)cn1 (racemic) [Example 164, hydrochloride]

>  <Result>
0.0121 µM

$$$$
>  <Compound>
O=C(Nc1ccc(C2CCCNC2)cc1)c1ccc(OCC(F)(F)F)cn1 (racemic) [Example 191, hydrochloride]

>  <Result>
0.0074 µM

$$$$
>  <Compound>
O=C(Nc1ccc(C2CNCCO2)cc1)c1csc(-c2ccccc2)n1 (racemic) [Example 233, hydrochloride]

>  <Result>
0.0014 µM

$$$$
>  <Compound>
CCCc1cnc(C(=O)Nc2ccc([C@@H]3CCCNC3)cc2)cn1 [Example 278, hydrochloride]

>  <Result>
0.0118 µM

$$$$

---

Target: rat TAAR1 (Rattus norvegicus (Rat), UniProt Q923Y9)
Assay: Radioligand binding assay on rat TAAR1
Details: read-out: Ki (μM) rat
Where a name gives a salt, the structure may show the parent alone.
Some molecules, each annotated with its measured Ki.

>  <Molecule>
Cc1cc(C(=O)Nc2ccc([C@@H]3CCCNC3)cc2)ccc1Cl [Example 226, hydrochloride]

>  <Ki, µM>
0.001

$$$$
>  <Molecule>
O=C(Nc1ccc([C@H]2CCCNC2)cc1)c1ccc(OCC(F)(F)F)nc1 [Example 223, hydrochloride]

>  <Ki, µM>
0.0018

$$$$
>  <Molecule>
O=C(Nc1ccc([C@H]2CNCCO2)cc1)c1cccc(Cl)c1 [Example 263, hydrochloride]

>  <Ki, µM>
0.0011

$$$$
>  <Molecule>
CCOc1ccc(C(=O)Nc2ccc(C3CNCCO3)cc2)cc1 (racemic) [Example 197, hydrochloride]

>  <Ki, µM>
0.0016

$$$$
>  <Molecule>
CSc1ccc(C(=O)Nc2ccc(C3CNCCO3)cc2)cc1 (stereo in doubt) [Example 267, hydrochloride]

>  <Ki, µM>
0.0011

$$$$
>  <Molecule>
O=C(Nc1ccc([C@@H]2CNCCO2)cc1)c1cc(Cl)nc(Cl)c1 [Example 270, hydrochloride]

>  <Ki, µM>
0.0045

$$$$
>  <Molecule>
O=C(Nc1ccc([C@H]2CNCCO2)cc1)c1ccc(OCC(F)(F)F)nc1 [Example 269, hydrochloride]

>  <Ki, µM>
0.003

$$$$
>  <Molecule>
O=C(Nc1ccc([C@H]2CNCCO2)cc1)c1ccc(Cl)nc1 [Example 208, hydrochloride]

>  <Ki, µM>
0.0044

$$$$
>  <Molecule>
C#Cc1ccc(C(=O)Nc2ccc(C3CCNC3)cc2)cc1 (racemic) [Example 54, hydrochloride]

>  <Ki, µM>
0.0152

$$$$
